System: Staphylococcus aureus MSSA MB2865
Construct: MB2865 (MSSA)
assay-explanation: microbe, parasite or virus in culture
Parameters: Broth microdilution MIC following CLSI protocol, bacterial growth inhibition, at Medina Foundation
Form field: MIC (one value per entry).
// units = µg/mL; emit number, no label

- compound: "CC1(C)S[C@@H]2[C@H](NC(=O)Cc3ccccc3)C(=O)N2[C@H]1C(=O)O"
  test-target: "Staphylococcus aureus MSSA MB2865"
  MIC / µg/mL: 16
- compound: "CC1=CCCC(C)C(O)C(C)C(O)CCC=CC(C)C(O)C=CC(C)C(O)C(C)=CC(O[C@H]2O[C@H](CO)[C@@H](O)[C@H](O)[C@@H]2O)C(O)CC(O)CC(O)CC(O)C(C)C(O)C(C)C(O)CC(O)CC(O)C=CCC(C(C)C(O)CCCN)OC1=O (some centres unmarked)"
  test-target: "Staphylococcus aureus MSSA MB2865"
  MIC / µg/mL: 32
- compound: "CO[C@H]1/C=C/O[C@@]2(C)Oc3c(C)c(O)c4c(O)c(c(/C=N/N5CCN(C)CC5)c(O)c4c3C2=O)NC(=O)/C(C)=C\\C=C\\[C@H](C)[C@H](O)[C@@H](C)[C@@H](O)[C@@H](C)[C@H](OC(C)=O)[C@@H]1C"
  test-target: "Staphylococcus aureus MSSA MB2865"
  MIC / µg/mL: 0.5

# next compound below
Recorded MIC for `CN[C@H](CC(C)C)C(=O)N[C@H]1C(=O)N[C@@H](CC(N)=O)C(=O)N[C@H]2C(=O)N[C@H]3C(=O)N[C@H](C(=O)N[C@H](C(=O)O)c4cc(O)cc(O)c4-c4cc3ccc4O)[C@H](O)c3ccc(c(Cl)c3)Oc3cc2cc(c3O[C@@H]2O[C@H](CO)[C@@H](O)[C@H](O)[C@H]2O[C@H]2C[C@](C)(N)[C@H](O)[C@H](C)O2)Oc2ccc(cc2Cl)[C@H]1O` , please?
2

Just for reference, paper PMC9600172 is where these values come from.
